test: Protein binding in Sprague-Dawley rat serum at 10 uM after 1 hr by LC-MS/MS analysis; assay type: ADME, cell-free; details: read-out: PB (converted)
quantity measured: fraction unbound at 1 h, 10 µM
// print number alone

Query: Name the recorded fraction unbound at 1 h, 10 µM for `O=C(O)c1cccc(-c2cccc(CCS)c2C(=O)O)c1` .
Reply: 0.025

---

experiment: AUC(0 to last) in Sprague-Dawley rat at 0.1 mg/kg, po administered via gavage measured under fasted conditions by LC-MS/MS analysis; format: ADME, organism-based; parameters: time 0 - last, dose 0.1 mg/kg, route oral; details: plasma
quantity measured: AUC(0-t) (ng·h/mL)
Numbers only; they are read as ng·h/mL.

Query: Name the recorded AUC(0-t) for `O=C(O)c1cccc(-c2cccc(CCS)c2C(=O)O)c1` .
Reply: 268

---

test: Volume of distribution in Sprague-Dawley rat at 10 mg/kg, iv administered as bolus injection measured under fasted conditions by LC-MS/MS analysis; format: ADME, organism-based; parameters: dose 10 mg/kg, route intravenous; details: in vivo
quantity measured: Vd (L/kg)
Numbers only; they are read as L/kg.

Query: Name the recorded Vd for `O=C(O)c1cccc(-c2cccc(CCS)c2C(=O)O)c1` .
Reply: 1.43

---

experiment: Half life in Sprague-Dawley rat at 10 mg/kg, iv administered as bolus injection measured under fasted conditions by LC-MS/MS analysis; format: ADME, organism-based; parameters: dose 10 mg/kg, route intravenous; details: in vivo
quantity measured: half-life
// return the numeric value with its unit appended

Query: Name the recorded half-life for `O=C(O)c1cccc(-c2cccc(CCS)c2C(=O)O)c1` .
Reply: 3.55 h

---

assay: Apparent volume of distribution in Sprague-Dawley rat at 10 mg/kg, po administered via gavage measured under fed conditions by LC-MS/MS analysis; assay type: ADME, organism-based; set-up: dose 10 mg/kg, route oral; conditions: in vivo
quantity measured: Vd/F (L/kg)
Numbers only; they are read as L/kg.

Query: Name the recorded Vd/F for `O=C(O)c1cccc(-c2cccc(CCS)c2C(=O)O)c1` .
Reply: 1.09

---

assay: AUC(0 to last) in Sprague-Dawley rat at 10 mg/kg, po administered via gavage measured under fasted conditions by LC-MS/MS analysis; type: ADME, organism-based; set-up: time 0 - last, dose 10 mg/kg, route oral; conditions: plasma
quantity measured: AUC(0-t)
// return the numeric value with its unit appended

Query: Name the recorded AUC(0-t) for `O=C(O)c1cccc(-c2cccc(CCS)c2C(=O)O)c1` .
Reply: 33400 ng·h/mL

---

test: Half life in Sprague-Dawley rat at 30 mg/kg, po administered via gavage measured under fasted conditions by LC-MS/MS analysis; type: ADME, organism-based; parameters: dose 30 mg/kg, route oral; details: in vivo
quantity measured: half-life (h)
Numbers only; they are read as h.

Query: Name the recorded half-life for `O=C(O)c1cccc(-c2cccc(CCS)c2C(=O)O)c1` .
Reply: 3.15

---

assay: AUC(0 to last) in Sprague-Dawley rat at 30 mg/kg, po administered via gavage measured under fasted conditions by LC-MS/MS analysis; format: ADME, organism-based; set-up: time 0 - last, dose 30 mg/kg, route oral; details: plasma
quantity measured: AUC(0-t) (µg·h/mL)
Numbers only; they are read as µg·h/mL.

Query: Name the recorded AUC(0-t) for `O=C(O)c1cccc(-c2cccc(CCS)c2C(=O)O)c1` .
Reply: 76.1
